target: human cloned 5-HT2A receptor (Homo sapiens); construct: expressed in transfected cells; host or cells: L929 cells; assay: In vitro binding affinity for 5-HT2A receptor (radioligand binding); conditions: human cloned 5-HT2A receptor, radioligand binding; read-out: h-5HT2A (converted)
Sequence (P28223 whole entry): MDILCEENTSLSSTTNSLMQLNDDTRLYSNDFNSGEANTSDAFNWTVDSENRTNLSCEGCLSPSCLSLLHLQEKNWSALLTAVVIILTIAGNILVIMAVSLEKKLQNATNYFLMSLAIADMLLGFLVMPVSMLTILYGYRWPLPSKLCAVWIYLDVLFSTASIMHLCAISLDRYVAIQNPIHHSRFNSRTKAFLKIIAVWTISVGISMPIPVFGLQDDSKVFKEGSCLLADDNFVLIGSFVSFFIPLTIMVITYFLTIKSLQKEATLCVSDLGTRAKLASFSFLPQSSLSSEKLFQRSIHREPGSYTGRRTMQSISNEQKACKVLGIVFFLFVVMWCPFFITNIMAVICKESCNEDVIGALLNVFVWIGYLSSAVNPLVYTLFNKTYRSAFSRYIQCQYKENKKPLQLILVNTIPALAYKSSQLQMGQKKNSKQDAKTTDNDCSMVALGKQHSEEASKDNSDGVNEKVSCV
metricName: log10 IC50 (log10 of the value in µM)

compound: OC1CCN(CC2CC3=C(O2)c2cc(F)ccc2Sc2ccccc23)C1 (stereo not shown) [Compound 34]
assayTarget: human cloned 5-HT2A receptor (Homo sapiens)
observed: -3.90
--
compound: CNCC1CC2=C(O1)c1ccccc1Cc1ccc(C#N)cc12 (stereo not shown) [Compound 133]
assayTarget: human cloned 5-HT2A receptor (Homo sapiens)
observed: -1.60
--
compound: CNC[C@H]1CC2=C(O1)c1cc(F)ccc1Cc1ccccc12 [Compound 3]
assayTarget: human cloned 5-HT2A receptor (Homo sapiens)
observed: -2.20
--
compound: CNCC1CC2=C(O1)c1cc(F)ccc1Sc1ccccc12 (single isomer, unassigned) [Compound 13]
assayTarget: human cloned 5-HT2A receptor (Homo sapiens)
observed: -2.50
--
compound: OC1CCCN(CC2CC3=C(O2)c2cc(F)ccc2Cc2ccccc23)C1 (stereo not shown) [Compound 37]
assayTarget: human cloned 5-HT2A receptor (Homo sapiens)
observed: -3.00
--
compound: O=S(=O)(Cc1ccccc1)N1CCN(CC2CC3=C(O2)c2cc(F)ccc2Oc2ccccc23)CC1 (stereo not shown) [Compound 52]
assayTarget: human cloned 5-HT2A receptor (Homo sapiens)
observed: -1.00
--
compound: CC(=O)N1CCN(CC2CC3=C(O2)c2cc(F)ccc2Oc2ccccc23)CC1 (stereo not shown) [Compound 54]
assayTarget: human cloned 5-HT2A receptor (Homo sapiens)
observed: -1.50
--
compound: CN(CC(=O)Nc1ccccc1)C[C@H]1CC2=C(O1)c1cc(F)ccc1Cc1ccccc12 [Compound 118]
assayTarget: human cloned 5-HT2A receptor (Homo sapiens)
observed: -1.30
--
compound: CN(CCO)CC1CC2=C(O1)c1cc(F)ccc1Oc1ccccc12 (stereo not shown) [Compound 32]
assayTarget: human cloned 5-HT2A receptor (Homo sapiens)
observed: -1.80
--
compound: CCCn1c2c(c3ccccc31)C1=C(CC(CN(C)C)O1)c1ccccc1S2 (stereo not shown) [Compound 94]
assayTarget: human cloned 5-HT2A receptor (Homo sapiens)
observed: -0.90
--
compound: COC(=O)CC(=O)N1CCN(CC2CC3=C(O2)c2cc(F)ccc2Cc2ccccc23)CC1 (stereo not shown) [Compound 59]
assayTarget: human cloned 5-HT2A receptor (Homo sapiens)
observed: -2.70
--
compound: C=C1c2ccccc2C2=C(OC(CNC)C2)c2ccccc21 (stereo not shown) [Compound 11]
assayTarget: human cloned 5-HT2A receptor (Homo sapiens)
observed: -1.40
--
compound: CN(CC(N)=O)C[C@H]1CC2=C(O1)c1cc(F)ccc1Cc1ccccc12 [Compound 115]
assayTarget: human cloned 5-HT2A receptor (Homo sapiens)
observed: -2.00
--
compound: CN(C)CCC1CC2=C(O1)c1cc(F)ccc1Cc1ccccc12 (stereo not shown) [Compound 137]
assayTarget: human cloned 5-HT2A receptor (Homo sapiens)
observed: -1.90
--
compound: CCOC(=O)N1CCN(CC2CC3=C(O2)c2cc(F)ccc2Oc2ccccc23)CC1 (stereo not shown) [Compound 62]
assayTarget: human cloned 5-HT2A receptor (Homo sapiens)
observed: -1.10
--
compound: CN(CCC(=O)O)C[C@H]1CC2=C(O1)c1cc(F)ccc1Cc1ccccc12 [Compound 108]
assayTarget: human cloned 5-HT2A receptor (Homo sapiens)
observed: -1.90
--
compound: CN(C[C@H]1CC2=C(O1)c1cc(F)ccc1Cc1ccccc12)C1CC(=O)NC1=O (mixture of isomers) [Compound 124]
assayTarget: human cloned 5-HT2A receptor (Homo sapiens)
observed: -1.40
--
compound: OCCN1CCN(CC2CC3=C(O2)c2cc(F)ccc2Cc2ccccc23)CC1 (stereo not shown) [Compound 41]
assayTarget: human cloned 5-HT2A receptor (Homo sapiens)
observed: -2.30
--
compound: COC(=O)CC(=O)N(C)C[C@H]1CC2=C(O1)c1cc(F)ccc1Cc1ccccc12 [Compound 112]
assayTarget: human cloned 5-HT2A receptor (Homo sapiens)
observed: -0.70
--
compound: CCNCC1CC2=C(O1)c1cc(F)ccc1Sc1ccccc12 (stereo not shown) [Compound 18]
assayTarget: human cloned 5-HT2A receptor (Homo sapiens)
observed: -3.40
--
compound: CNC(=O)/C=C/CN(C)C[C@H]1CC2=C(O1)c1cc(F)ccc1Cc1ccccc12 [Compound 123]
assayTarget: human cloned 5-HT2A receptor (Homo sapiens)
observed: -2.70
--
compound: CN(CC(=O)O)C[C@H]1CC2=C(O1)c1cc(F)ccc1Cc1ccccc12 [Compound 107]
assayTarget: human cloned 5-HT2A receptor (Homo sapiens)
observed: -2.00
--
compound: CCCC(=O)N1CCN(CC2CC3=C(O2)c2cc(F)ccc2Cc2ccccc23)CC1 (stereo not shown) [Compound 55]
assayTarget: human cloned 5-HT2A receptor (Homo sapiens)
observed: -2.40
--
compound: O=C(Nc1ccc(F)cc1)N1CCN(CC2CC3=C(O2)c2cc(F)ccc2Cc2ccccc23)CC1 (stereo not shown) [Compound 85]
assayTarget: human cloned 5-HT2A receptor (Homo sapiens)
observed: -2.50
--
compound: COc1ccccc1NC[C@@H]1CC2=C(O1)c1cc(F)ccc1Cc1ccccc12 [Compound 106]
assayTarget: human cloned 5-HT2A receptor (Homo sapiens)
observed: -2.20
--
compound: CN(C)CC1CC2=C(O1)c1ccsc1Cc1ccccc12 (stereo not shown) [Compound 131]
assayTarget: human cloned 5-HT2A receptor (Homo sapiens)
observed: -1.40
--
compound: COc1cc2c(cc1OC)CN(CC1CC3=C(O1)c1cc(F)ccc1Cc1ccccc13)CC2 (stereo not shown) [Compound 40]
assayTarget: human cloned 5-HT2A receptor (Homo sapiens)
observed: -2.20
--
compound: Cc1ccc(S(=O)(=O)N2CCN(CC3CC4=C(O3)c3cc(F)ccc3Oc3ccccc34)CC2)cc1 (stereo not shown) [Compound 50]
assayTarget: human cloned 5-HT2A receptor (Homo sapiens)
observed: -0.70
--
compound: COc1ccccc1NC(=O)CN(C)C[C@H]1CC2=C(O1)c1cc(F)ccc1Cc1ccccc12 [Compound 119]
assayTarget: human cloned 5-HT2A receptor (Homo sapiens)
observed: -1.50
--
compound: CCOC(=O)CNC(=O)N1CCN(CC2CC3=C(O2)c2cc(F)ccc2Oc2ccccc23)CC1 (stereo not shown) [Compound 82]
assayTarget: human cloned 5-HT2A receptor (Homo sapiens)
observed: -1.40
--
compound: CCS(=O)(=O)N(C)CC1CC2=C(O1)c1cc(F)ccc1Cc1ccccc12 (stereo not shown) [Compound 127]
assayTarget: human cloned 5-HT2A receptor (Homo sapiens)
observed: -0.70
--
compound: CNCC1CC2=C(O1)c1ccc(F)cc1Cc1ccccc12 (stereo not shown) [Compound 135]
assayTarget: human cloned 5-HT2A receptor (Homo sapiens)
observed: -2.30
--
compound: O=C(NC1CCCCC1)N1CCN(CC2CC3=C(O2)c2cc(F)ccc2Cc2ccccc23)CC1 (stereo not shown) [Compound 79]
assayTarget: human cloned 5-HT2A receptor (Homo sapiens)
observed: -1.40
--
compound: CNCC1CC2=C(O1)c1cc(F)ccc1Oc1ccccc12 (stereo not shown) [Compound 12]
assayTarget: human cloned 5-HT2A receptor (Homo sapiens)
observed: -1.90

The measurements presented in this section are drawn from patent US8022102B2.
